# System: Sonic hedgehog protein (Shh)
# assayName: small-molecule binders of Shh protein, primary screen, biochemical, small-molecule microarray, 635/667 nm fluorescence (AID 1151);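 further: Shh protein binding to compounds spotted on small-molecule microarray slides; score combines spot fluorescence intensity with signal-to-noise across triplicate slides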
# measurementConditions: small-molecule microarray binding, 635 nm fluorescence; higher = more signal
Quick reference for composite z-score among some molecules

molecule	composite z-score
CCOC(=O)[C@H](CC(C)C)NC(=O)CCC1CC(OC(=O)NCCc2ccc(F)cc2)CC2(CCCC(COC(=O)NCc3cccc(C(F)(F)F)c3)O2)O1 (stereo partly drawn)	0.909
CC(C)=NO[C@H](C)c1cn([C@@H]2COC[C@H]2O)nn1	0.477
O=C1[C@H]2[C@H]3[C@H](O)[C@H](O)CC(=NOC[C@@H](O)COCc4ccco4)[C@@H]3CC[C@H]2C(=O)N1Cc1ccc2c(c1)OCO2	1.55
COC(=O)[C@H](C)NC(=O)CCC1CC(OC(=O)NCCc2ccc(F)cc2)CC2(CCCC(COC(=O)NCCOc3ccccc3)O2)O1 (stereo partly drawn)	1.46
CC(C)(C)N1C(=O)[C@H]2[C@@H]3C(=CC[C@H]2C1=O)C(=O)[C@H]1O[C@H]1[C@H]3O	0.981
C#CCCCON=C1C[C@@H](O)[C@@H](O)[C@@H]2[C@@H]3C(=O)N(C[C@@H]4CCCO4)C(=O)[C@@H]3CC[C@H]12	0.554
COc1ccc(COC(=O)NN=C2C[C@@H](O)[C@@H](O)[C@@H]3[C@@H]4C(=O)N(Cc5ccccc5)C(=O)[C@@H]4CC[C@@H]23)cc1	0.111
COc1ccc(COC(=O)NN=C2C[C@@H](O)[C@@H](O)[C@@H]3[C@@H]4C(=O)N([C@@H](C)c5ccccc5)C(=O)[C@@H]4CC[C@@H]23)cc1	-0.0113
CON=C(C)CCN1CCCc2nc(C)c(C)cc21	1.07
COc1ccc(O[C@H]2C=C[C@@H](C#Cc3ccccc3)O[C@@H]2CO)cc1	0.0864
COCOc1ccc(Br)cc1C(=O)C=Cc1ccc2c(c1)OCO2	0.487
C=C(C)C(=O)OC[C@H]1CN2[C@@H](CC[C@@H](C)[C@@H]2c2ccc(Br)cc2)C(=O)O1	0.0827
CO[C@@H]1[C@H](O)CO[C@H]1C=Cc1ccccc1	-0.0147
O=C1C2=CC[C@H]3C(=O)N(c4ccc(F)cc4F)C(=O)[C@H]3[C@H]2[C@H](O)[C@@H]2O[C@H]12	0.389
CC(CCN1CCCc2nc(C)c(C)cc21)=NO[C@H](C)c1cn([C@H](CO)Cc2ccccc2)nn1	1.04
COc1ccc(O[C@H]2C=C[C@@H](c3ccccc3)O[C@@H]2COC(=O)NCc2cccc3ccccc23)cc1	0.401
CCOC(=O)CCN1C(=O)[C@H]2[C@H]3[C@H](O)[C@H](O)CC(=O)[C@@H]3CC[C@H]2C1=O	0.757
COc1ccc(COC(=O)NN=C2C[C@@H](O)[C@@H](O)[C@@H]3[C@@H]4C(=O)N(c5cccc(Oc6ccccc6)c5)C(=O)[C@@H]4CC[C@H]23)cc1	-1.44
CON=C(C)CCN1CCCCc2nc(C)c(C)cc21	0.936
COC(=O)[C@H](C)NC(=O)CCC1CC(OC(=O)NCc2cccc3ccccc23)CC2(CCCC(COC(=O)NCCc3ccccc3OC)O2)O1 (stereo partly drawn)	0.963
C[C@@H](c1ccccc1)N1C(=O)[C@H]2[C@H]3[C@H](O)[C@H](O)CC(=NOC[C@@H](O)COCc4ccco4)[C@H]3CC[C@H]2C1=O	1.65
C=CCOCC1CN2[C@@H](CC[C@@H](C)[C@@H]2c2ccc(Br)cc2)C(=O)O1 (stereo partly drawn)	0.257
C#CCCCON=C1C[C@@H](O)[C@@H](O)[C@@H]2[C@@H]3C(=O)N(C[C@@H]4CCCO4)C(=O)[C@@H]3CC[C@@H]12	0.305
CCOC(=O)[C@H](Cc1ccccc1)NC(=O)CCC1CC(OC(=O)NCc2cccc3ccccc23)CC2(CCCC(COC(=O)NCc3ccc4c(c3)OCO4)O2)O1 (stereo partly drawn)	0.466
CCN1C(=O)[C@H]2[C@H]3[C@H](O)[C@H](O)CC(=NO[C@@H]4O[C@H](CO)[C@@H](O)[C@H](O)[C@H]4O)[C@H]3CC[C@H]2C1=O	0.47
C=CC[C@@H]1C=C[C@H](ON=C(C)CCN2CCCc3nc(C)c(C)cc32)[C@@H](CO)O1	1.66
CC(C)=NO[C@@H](C)c1cn([C@H](CO)Cc2ccccc2)nn1	0.469
CC(=O)OC[C@H]1O[C@H](C#CCC2CCCCC2)C=C[C@@H]1OC(C)=O	1.17

The values you see were collected from PubChem BioAssay.
